- Assayed target: Sphingosine 1-phosphate receptor 4 (Homo sapiens, UniProt O95977)
- Sequence (O95977 whole entry): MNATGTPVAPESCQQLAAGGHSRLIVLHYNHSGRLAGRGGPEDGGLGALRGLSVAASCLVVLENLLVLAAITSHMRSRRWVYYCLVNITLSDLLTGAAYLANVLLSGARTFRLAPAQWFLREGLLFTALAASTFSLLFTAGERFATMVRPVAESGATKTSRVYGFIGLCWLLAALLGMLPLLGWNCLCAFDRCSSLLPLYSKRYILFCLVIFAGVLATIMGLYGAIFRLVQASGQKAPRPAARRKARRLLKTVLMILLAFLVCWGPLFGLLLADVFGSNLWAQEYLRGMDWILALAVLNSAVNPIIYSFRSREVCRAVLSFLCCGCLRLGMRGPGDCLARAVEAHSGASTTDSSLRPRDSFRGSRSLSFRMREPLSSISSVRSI
- Test description: Agonism of human S1P-4 receptor expressed in CHO cells, 90-120 min in pH 7.4 using [35S]GTP-gamma-S as radioligand
Metric name: EC50 (nM)
Please state the figure in nM; there is no need to write the unit.

CCCCCCCCc1ccc(CCC(N)(CO)COP(=O)(O)O)cc1 (racemic)	2.4
CCCCCCCCc1ccc(CC[C@@](N)(CO)COP(=O)(O)O)cc1	80.1

Kindly review the next compound as well.
Problem: Please give the measured EC50 for this compound: CCCCCCCCc1ccc(CC[C@](N)(CO)COP(=O)(O)O)cc1 [FTY720-P]
Result: 0.6
